Assay: Viability qHTS for spleen associated tyrosine kinase inhibitor (SYKi) drug resistant MV4-11 cells (AID 1963824); note: nearly all actives have a fitted effect of over 35% in size
Settings: SYKi-resistant MV4-11 viability, CellTiter-Glo, 72 h; series mostly up to 45 µM
Results filed as inconclusive are left out. Activity calls are given as the source filed them. Calls come from the whole dose curve; as a rule, active = well fitted cell-killing curve with a large enough effect; inconclusive = small, poorly fitted or top-dose-only effect, or effect the other way; inactive = no such curve, though single readings can be large or run the other way.

{"columns": ["compound", "viability, % of control"],
 "data": [
  ["NC(=O)[C@H](Cc1ccccc1)NC(=O)[C@H](CCCN=C(N)N)NC(=O)C12CC3CC(CC(C3)C1)C2", "78% [at 9.25 µM] (inactive)"],
  ["CC[C@H](/C=C/[C@@H](C)[C@H]1CC[C@H]2[C@@H]3CC=C4C[C@@H](O)CC[C@]4(C)[C@H]3CC[C@]12C)C(C)C", "108% [at 4.97 µM] (inactive)"],
  ["COC1CC(O[C@H]2CC[C@@]3(C)C(=CC[C@]4(O)C3[C@H](OC(C)=O)[C@@H](OC(=O)c3ccccc3)[C@]3(C)[C@@H](C(C)=O)CC[C@@]34O)C2)OC(C)C1OC1CC(OC)C(OC2CC(OC)C(OC3OC(C)C(OC4OC(CO)C(O)C(O)C4O)C(OC)C3O)C(C)O2)C(C)O1 (some centres undefined)", "66.2% [at 9.25 µM] (inactive)"],
  ["CC1=CC[C@]2(C(=O)O[C@@H]3O[C@H](CO[C@@H]4O[C@H](CO)[C@@H](O[C@@H]5O[C@@H](C)[C@H](O)[C@@H](O)[C@H]5O)[C@H](O)[C@H]4O)[C@@H](O)[C@H](O)[C@H]3O)CC[C@]3(C)C(CCC4[C@@]5(C)C[C@@H](O)[C@H](O)[C@@](C)(CO)C5CC[C@]43C)C2C1C (some centres undefined)", "86.5% [at 9.25 µM] (inactive)"],
  ["CC1(C)CC[C@]2(C(=O)O[C@@H]3O[C@H](CO)[C@@H](O)[C@H](O)[C@H]3O)CC[C@]3(C)C(=CCC4[C@@]5(C)CC[C@H](O[C@@H]6O[C@H](C(=O)O)[C@@H](O)[C@H](O)[C@H]6O)[C@@](C)(CO)C5CC[C@]43C)C2C1 (some centres undefined)", "100% [at 9.25 µM] (inactive)"],
  ["CC1OC(OC2C(C)OC(OC3C(OC(=O)C45CCC(C)(C)CC4C4=CCC6C7(C)CCC(OC8OC(C(=O)O)C(O)C(O)C8OC8OC(CO)C(O)C(OC9OC(C)C(O)C(O)C9O)C8O)C(C)(CO)C7CCC6(C)C4(C)CC5)OC(CO)C(O)C3O)C(O)C2O)C(O)C(O)C1O (centres undefined)", "97% [at 9.25 µM] (inactive)"],
  ["N[C@@H](CSSC[C@H](N)C(=O)O)C(=O)O", "76.8% [at 0.588 µM] (inactive)"],
  ["CC(C)CC1(C(=O)OCc2ccc(O[C@@H]3O[C@H](CO)[C@@H](O)[C@H](O)[C@H]3O)cc2)CC(=O)OC(C(=O)O)CC(=O)OCC2OC(O1)C(OC(=O)/C=C/c1ccc(O)cc1)C(O)C2O (some centres undefined)", "89.5% [at 9.25 µM] (inactive)"],
  ["CC(=O)O[C@@H]1[C@H](O[C@@H]2OC[C@](O)(CO)[C@H]2O)[C@@H](O[C@@H]2O[C@@H](C)[C@H](O)[C@@H](O)[C@H]2O)[C@H](OC(=O)[C@]23CCC(C)(C)C[C@H]2C2=CCC4[C@@]5(C)C[C@H](O)[C@H](O[C@@H]6O[C@H](C(=O)O)[C@@H](O)[C@H](O)[C@H]6O)[C@@](C)(C(=O)O)C5CC[C@@]4(C)[C@]2(C)CC3)O[C@@H]1C (some centres undefined)", "107% [at 9.25 µM] (inactive)"]
]}
